# System: Phytophthora infestans
# Assay type: in vivo
# settings: concentration at which 75% inhibition of the disease is observed; tomato seedlings (Marmande) sprayed 24 hours before infection with Phytophthora infestans spores; read seven days after infecting vs controls
Measured IC75 (ppm) accompanies every entry in the list below.
Give just the numeric value; ppm need not be written.

Study these solved cases before continuing.
CSC1=N[C@@](C)(c2ccc(F)cc2)C(=O)N1Nc1cccc(F)c1 | 37
COC1=NC(C)(c2ccc(Br)cc2)C(=O)N1Nc1ccccc1 (stereo not drawn) [Compound 505] | 37
CSC1=N[C@@](C)(c2ccccc2)C(=O)N1Nc1ccccc1 | 37
COC1=N[C@@](C)(c2ccccc2)C(=O)N1Nc1ccccc1 | 110
CSC1=NC(C)(c2ccccc2)C(=O)N1Nc1ccccc1 (racemic) [501 + 502] | 110
CSC1=NC(C)(c2ccc(F)cc2)C(=O)N1Nc1ccccc1 (racemic) | 110

Task item: Which IC75 (ppm) is reported for this molecule? COC1=NC(C)(c2ccc(F)cc2)C(=O)N1Nc1ccccc1 (single isomer, unassigned) [Compound 525]
Reply: 37

Task item: Queued: COC1=NC(C)(c2ccc(F)cc2)C(=O)N1Nc1ccccc1 (racemic) [525 + 526]
Reply: 110

Task item: Queued: CSC1=NC(C)(c2ccc(F)cc2)C(=O)N1Nc1cccc(F)c1 (racemic)
Reply: 110

Task item: Queued: COC1=NC(C)(c2ccc(F)cc2)C(=O)N1Nc1cccc(F)c1 (racemic) [527 + 528]
Reply: 37

Task item: Queued: COC1=NC(C)(c2ccccc2)C(=O)N1Nc1ccccc1 (racemic) [503 + 504]
Reply: 330

###

Measured melting point accompanies every entry in the list below.
Number first, unit second: that is the form wanted.

Study these solved cases before continuing.
CSC1=NC2(CCCc3ccccc32)C(=O)N1Nc1ccccc1 (stereo not shown) | 158 °C
CSC1=NC(C)(c2ccccc2)C(=O)N1N(C)c1ccccc1 (stereo not shown) | 124 °C
CSC1=NC2(CCCc3ccccc32)C(=O)N1Nc1ccccc1C (stereo not shown) | 174 °C
COC1=NC(C)(c2ccccc2)C(=O)N1Nc1ccccc1 (stereo not shown) | 132 °C
CSC1=NC2(CCCc3ccccc32)C(=O)N1Nc1ccccc1Cl (stereo not shown) | 168 °C

Task item: Which melting point is reported for this compound? CSC1=NC2(CCc3ccccc32)C(=O)N1Nc1ccccc1 (stereo not shown)
Reply: 85 °C

Task item: Queued: CCC1(c2ccccc2)N=C(SC)N(Nc2ccccc2)C1=O (stereo not shown)
Reply: 147 °C

Task item: Queued: CSC1=NC2(CCCc3ccccc32)C(=O)N1Nc1ccc(Cl)cc1 (stereo not shown)
Reply: 191 °C

Task item: Queued: CSC1=NC(C)(c2ccccc2)C(=S)N1Nc1ccccc1 (stereo not shown)
Reply: 127 °C

Task item: Queued: COC1=N[C@@](C)(c2ccccc2)C(=O)N1Nc1ccccc1
Reply: 132 °C

###

Measured melting point accompanies every entry in the list below.

Study these solved cases before continuing.
CSC1=NC(c2ccccc2)C(=O)N1Nc1ccccc1 (stereo not drawn) | 190 °C
CSC1=NC(C)(c2ccccc2)C(=O)N1N(C(C)=O)c1ccccc1 (stereo not drawn) [Compound 23] | 132 °C
COC1=NC(C)(c2ccc(Br)cc2)C(=O)N1Nc1ccccc1 (stereo not drawn) [Compound 505] | 202 °C
CC1=NC(C)(c2ccccc2)C(=O)N1Nc1ccccc1 (stereo not drawn) [Compound 201] | 135 °C
CSC1=NC(C)(Cc2ccccc2)C(=O)N1Nc1ccccc1 (stereo not drawn) | 166 °C

// below: melting point requested for another molecule
Task item: Which melting point is reported for this molecule? CSC1=NC(C)(c2cccnc2)C(=O)N1Nc1ccccc1 (stereo not drawn)
Reply: 156 °C

###

# System: Phytophthora infestans
# Format: in vivo
# settings: concentration at which 75% inhibition of the disease is observed; tomato seedlings (Marmande) sprayed 24 hours before infection with Phytophthora infestans spores; read seven days after infecting vs controls
quantity-measured: IC75 (ppm)

COC1=NC(C)(c2ccc(F)cc2)C(=O)N1Nc1cccc(F)c1 (single isomer, unassigned) [Compound 527] | 4-12 ppm

Task item: Which IC75 (ppm) is reported for this molecule? COC1=NC(C)(c2ccccc2)C(=O)N1Nc1ccccc1 (stereo not shown) [Compound 504]
Reply: >1000 ppm

Task item: Queued: CSC1=NC(C)(c2ccccc2)C(=O)N1Nc1ccccc1 (stereo not shown) [Compound 502]
Reply: >1000 ppm

Task item: Queued: COC1=NC(C)(c2ccc(Br)cc2)C(=O)N1Nc1ccccc1 (stereo not shown) [Compound 506]
Reply: >1000 ppm

Task item: Queued: COC1=NC(C)(c2ccc(F)cc2)C(=O)N1Nc1ccccc1 (single isomer, unassigned) [Compound 526]
Reply: >1000 ppm

Task item: Queued: CSC1=N[C@@](C)(c2ccc(F)cc2)C(=O)N1Nc1ccccc1 [Compound 511]
Reply: 12-37 ppm

Task item: Queued: COC1=NC(C)(c2ccc(Br)cc2)C(=O)N1Nc1ccccc1 (racemic) [505 + 506]
Reply: >1000 ppm

All figures here come from patent US6344564B1.
